System: phosphorylation of Akt at Serine 473 in U87 MG cells
Test: cells
Conditions: Homo sapiens, U-87 MG, 2 h, read-out: U87Cell IC50, pAkt (Ser 473), U87 MG cells, two hours with compound
quantity measured: IC50 (nM)

I = CC(=O)Nc1ccc(Nc2ncc(Cc3ccc(S(C)(=O)=O)cc3)cc2-c2nc(C)nc3[nH]cnc23)cn1
II = COc1ncc(Nc2ncc(C=O)cc2-c2nc(C)nc(N)n2)cc1F
III = Cc1nc(N)nc(-c2cc(C(C)N3CCOCC3)cnc2Nc2ccc3scnc3c2)n1 (stereo not drawn)
IV = COc1ccc(Nc2ncc(-c3ccccn3)cc2-c2nc(C)nc(N)n2)cn1
V = Cc1nc(N)cc(-c2cnccc2Nc2cccc3[nH]ccc23)n1
Parameters: sort_field (IC50), sort_dir (desc). Present the labels in the sequence the task asks for.
V, I, IV, III, II

I = COc1ccc(Nc2ncc([C@H](C)N3CCN(S(C)(=O)=O)CC3)cc2-c2nc(C)nc(N)n2)cn1
II = Cc1nc(N)nc(-c2cc(-c3cnn(C)c3)cnc2Nc2cncc(F)c2)n1
III = COc1ncc(Nc2ncc(C3CCOCC3)cc2-c2nc(C)nc(N)n2)cc1F
IV = COc1ncc(Nc2ncc(C(OC(=O)c3cccc(Cl)c3)C(C)(C)O)cc2-c2nc(C)nc(N)n2)cc1F (stereo not drawn)
V = Cc1nc(N)cc(-c2cnccc2Nc2cccc3[nH]ncc23)n1
Given 5 compounds, produce a descending ranking by IC50. Present the labels in the sequence the task asks for.
V, II, IV, III, I
(V: 1540 nM, II: 192 nM, IV: 70 nM, III: 14 nM, I: 8 nM)

1 = COc1cc(Nc2ncc([C@@H](C)N3CCN(S(C)(=O)=O)CC3)cc2-c2nc(C)nc(N)n2)cnc1Cl
2 = COc1ncc(Nc2ncc(F)cc2-c2nc(C)nc(N)n2)cc1F
Compare the recorded IC50 of 1 and 2 ; state which is larger. Record your answer as the label of the chosen record.
2

P = Cc1nc(N)nc(-c2cc(CN3CCN(S(C)(=O)=O)CC3)cnc2Nc2cc[nH]n2)n1
Q = COc1ccc(Nc2ncc(C(C)(C)N)cc2-c2nc(C)nc(N)n2)cn1
Hey, which is lower on measured IC50, P or Q ? Record your answer as the label of the chosen record.
Q

Data origin: patent US8772480B2
